Test system: Cricetinae gen. sp.
Measurement Description: In vivo cholesterol absorption inhibitory activity using 7-day cholesterol-fed hamster model (expressed as percent change in serum cholesterol at 50 mg/kg/day)
Type: functional, Cricetulus griseus
Listed here are molecules together with their documented Change.
Experimental Endpoint: Change (%)

>>> experimental_result("COc1ccc(N2C(=O)[C@H](CCCc3ccccc3)[C@H]2c2ccc(SC)cc2)cc1")
0
>>> experimental_result("COc1ccc(N2C(=O)[C@@H](CCCc3ccccc3)[C@H]2c2ccc3c(c2)OCO3)cc1")
0
>>> experimental_result("COc1ccc([C@H]2NC(=O)[C@@H]2CCCc2ccccc2)cc1")
0
>>> experimental_result("COc1ccc([C@@H]2[C@@H](CCCc3ccccc3)C(=O)N2c2ccc(SC)cc2)cc1")
-26

====

The entries below come with measured Change values attached.
System: Cricetinae gen. sp.
Measurement Description: In vivo for cholesterol absorption inhibitory activity using 7-day cholesterol-fed hamster model (expressed as percent change in cholesteryl esters at 50 mg/kg/day)
Assay type: functional, Cricetulus griseus
Experimental Endpoint: Change (%)

>>> experimental_result("COc1ccc([C@@H]2[C@@H](CCCc3ccccc3)C(=O)N2C2CCCCC2)cc1")
0
>>> experimental_result("COc1ccc(N2C(=O)[C@H](CCCc3ccccc3)[C@H]2c2ccccc2)cc1")
-15
>>> experimental_result("COc1ccc([C@@H]2[C@@H](CCCc3ccccc3)C(=O)N2c2ccc(OC)cc2)cc1 [SCH-48461]")
-77.5
>>> experimental_result("COc1ccc([C@@H]2[C@H](C)C(=O)N2c2ccc(OC)cc2)cc1")
0
>>> experimental_result("CCN(CC)c1ccc(N2C(=O)[C@H](CCCc3ccccc3)[C@H]2c2ccc(OC)cc2)cc1")
-95

====

Recorded Change, one value per entry.
Tested on: Cricetinae gen. sp.
Measurement Description: In vivo for cholesterol absorption inhibitory activity using 7-day cholesterol-fed hamster model (expressed as percent change in cholesteryl esters at 50 mg/kg/day)
Assay type: functional, Cricetulus griseus
Experimental Endpoint: Change (%)

>>> experimental_result("COc1ccc([C@@H]2[C@@H](CCCc3ccccc3)C(=O)N2C(C)C)cc1")
-30
>>> experimental_result("COc1ccc(N2C(=O)[C@H](CCCc3ccccc3)[C@H]2c2ccc(OC(C)C)cc2)cc1")
-94
>>> experimental_result("COc1ccc([C@@H]2[C@@H](CCCc3ccccc3)C(=O)N2c2c(OC)cc(OC)cc2OC)cc1")
0
>>> experimental_result("COc1ccc([C@@H]2[C@@H](CCCC3CCCCC3)C(=O)N2c2ccc(OC)cc2)cc1")
-47
>>> experimental_result("CCCCOc1ccc([C@@H]2[C@@H](CCCc3ccccc3)C(=O)N2c2ccc(OC)cc2)cc1")
-64
>>> experimental_result("CCOc1ccc(N2C(=O)[C@H](CCCc3ccccc3)[C@H]2c2ccc(OC)cc2)cc1")
-96
>>> experimental_result("CC[C@@]1(c2ccccc2)C(=O)N(c2ccc(OC)cc2)[C@@H]1c1ccc(OC)cc1")
-28
>>> experimental_result("COc1ccc([C@@H]2[C@H](CCCCCCc3ccccc3)C(=O)N2c2ccc(OC)cc2)cc1")
0
>>> experimental_result("COc1ccc(N2C(=O)[C@H](CCCc3ccccc3)[C@H]2c2ccc(Oc3ccccc3)cc2)cc1")
-77
>>> experimental_result("COc1ccc([C@H]2N(c3ccc(OC)cc3)C(=O)[C@]2(Cc2ccccc2)c2ccccc2)cc1")
-15
>>> experimental_result("COc1ccc(N2C(=O)C(CCCc3ccccc3)C2(c2ccc(OC)cc2)c2ccc(OC)cc2)cc1 (centres undefined)")
0
>>> experimental_result("COc1ccc(N[C@H](c2ccc(OC)cc2)[C@@H](CCCc2ccccc2)C(=O)O)cc1")
0
>>> experimental_result("COc1ccc([C@H]2N(c3ccc(OC)cc3)C(=O)[C@@]2(Cc2ccccc2)c2ccccc2)cc1")
16
>>> experimental_result("COc1ccc([C@H]2N(c3ccc(OC)cc3)C(=O)[C@@]2(C)CCCc2ccccc2)cc1")
-56
>>> experimental_result("COc1ccc([C@H]2N(c3ccc(OC)cc3)C(=O)C2(c2ccccc2)c2ccccc2)cc1")
0
>>> experimental_result("COc1ccc(N2C(=O)[C@@H](CCCc3ccccc3)[C@H]2c2ccc(O)cc2)cc1")
-75
>>> experimental_result("COc1ccc(N2C(=O)[C@H](CCCc3ccccc3)[C@H]2c2ccc([S+](C)[O-])cc2)cc1 (some centres undefined)")
-32
>>> experimental_result("CC[C@H]1C(=O)N(c2ccc(OC)cc2)[C@@H]1c1ccc(OC)cc1")
0
>>> experimental_result("COc1ccc(N2C(=O)[C@H](CCCc3ccccc3)[C@H]2c2ccc(OC)cc2OC)cc1")
-78

====

System: Cricetinae gen. sp.
Measurement Description: In vivo for cholesterol absorption inhibitory activity using 7-day cholesterol-fed hamster model (expressed as percent change in cholesteryl esters at 50 mg/kg/day)
Format: functional, Cricetulus griseus
Change below -70% gives Condition not met; Change at or above it gives Condition met.

>>> assigned_category("COc1ccc(N2C(=O)[C@H](CCCc3ccccc3)[C@H]2c2ccc(OC(F)(F)F)cc2)cc1")
"Condition met"
>>> assigned_category("C=CCOc1ccc(N2C(=O)[C@H](CCCc3ccccc3)[C@H]2c2ccc(OC)cc2)cc1")
"Condition not met"
>>> assigned_category("COc1ccc(CN2C(=O)[C@H](CCCc3ccccc3)[C@H]2c2ccc(OC)cc2)cc1")
"Condition met"
>>> assigned_category("COc1ccc([C@@H]2[C@H](CCc3ccccc3)C(=O)N2c2ccc(OC)cc2)cc1")
"Condition met"
>>> assigned_category("COc1ccc([C@H]2N(c3ccccc3)C(=O)[C@@]2(F)CCCc2ccccc2)cc1")
"Condition not met"
>>> assigned_category("CC[C@@]1(CCCc2ccccc2)C(=O)N(c2ccc(OC)cc2)[C@@H]1c1ccc(OC)cc1")
"Condition met"
>>> assigned_category("COc1ccc(N2C(=O)C(CCCc3ccccc3)[C@]2(c2ccc(OC)cc2)C(F)(F)F)cc1 (stereo partly drawn)")
"Condition met"
>>> assigned_category("COc1ccc(N2C(=O)[C@H](CCCc3ccccc3)[C@H]2c2ccc(OC(C)(C)C)cc2)cc1")
"Condition not met"
>>> assigned_category("COc1ccc([C@@H]2[C@@H](CCCc3ccccc3)C(=O)N2c2ccc(OC(F)(F)F)cc2)cc1")
"Condition not met"
>>> assigned_category("COc1ccc([C@@H]2[C@@H](CCc3ccccc3)C(=O)N2c2ccc(OC)cc2)cc1")
"Condition met"
>>> assigned_category("COc1ccc(N2C(=O)[C@H](CCCc3ccccc3)[C@H]2c2ccc(CO)cc2)cc1")
"Condition met"
>>> assigned_category("COc1ccc([C@@H]2[C@@H](CCCc3ccccc3)C(=O)N2c2ccc(C)c(C)c2)cc1")
"Condition met"
>>> assigned_category("COc1ccc([C@@H]2[C@@H](CCCCc3ccccc3)C(=O)N2c2ccc(OC)cc2)cc1")
"Condition met"
>>> assigned_category("COc1ccc(N2C(=O)[C@H](CCCc3ccccc3)[C@H]2c2ccc(OCc3ccccc3)cc2)cc1")
"Condition met"
>>> assigned_category("COc1ccc(N2C(=O)[C@H](CCCc3ccccc3)[C@H]2c2ccc(NS(C)(=O)=O)cc2)cc1")
"Condition met"

====

Test system: Cricetinae gen. sp.
Measurement Description: In vivo cholesterol absorption inhibitory activity using 7-day cholesterol-fed hamster model (expressed as percent change in serum cholesterol at 50 mg/kg/day)
Format: functional, Cricetulus griseus
Experimental Endpoint: Change (%)

>>> experimental_result("COc1ccc([C@@H]2[C@@H](CCCc3ccccc3)C(=O)N2C23C[C@H]4C[C@@H](C2)C[C@@H](C3)C4)cc1")
0
>>> experimental_result("CCOc1ccc([C@@H]2[C@@H](CCCc3ccccc3)C(=O)N2c2ccc(OC)cc2)cc1")
-52
>>> experimental_result("CCOc1ccc(N2C(=O)[C@H](CCCc3ccccc3)[C@H]2c2ccc(OC)cc2)cc1")
-57
>>> experimental_result("COc1ccc([C@@H]2[C@@H](CCCc3ccccc3)C(=O)N2c2ccc3c(c2)OCO3)cc1")
-19
>>> experimental_result("COc1ccc([C@H]2N(c3ccc(OC)cc3)C(=O)[C@]2(Cc2ccccc2)c2ccccc2)cc1")
23
>>> experimental_result("COc1ccc(C(=O)N2C(=O)[C@H](CCCc3ccccc3)[C@H]2c2ccc(OC)cc2)cc1")
-25
>>> experimental_result("COc1ccc([C@@H]2[C@@H](CCCc3ccccc3)C(=O)N2c2cc(F)cc(F)c2)cc1")
-52
>>> experimental_result("COc1ccc(N2C(=O)[C@@H](CCCc3ccccc3)[C@H]2c2cccc(OC)c2)cc1")
-19
>>> experimental_result("COc1ccc(N2C(=O)[C@H](CCCc3ccccc3)[C@H]2c2ccc(OC)cc2OC)cc1")
-26
>>> experimental_result("COc1ccc(N2C(=O)[C@H](CCCc3ccccc3)[C@H]2c2ccc([S+](C)[O-])cc2)cc1 (stereo partly specified)")
-17
>>> experimental_result("C=CCOc1ccc(N2C(=O)[C@H](CCCc3ccccc3)[C@H]2c2ccc(OC)cc2)cc1")
-44
>>> experimental_result("COc1ccc(N2C(=O)C(CCCc3ccccc3)[C@]2(c2ccc(OC)cc2)C(F)(F)F)cc1 (stereo partly specified)")
0
>>> experimental_result("COc1ccc([C@H]2N(c3ccc(OC)cc3)C(=O)[C@@]2(Cc2ccccc2)c2ccccc2)cc1")
16
>>> experimental_result("COc1ccc([C@@H]2[C@@H](CCCc3ccccc3)C(=O)N2c2cccc(OC)c2)cc1")
-38
>>> experimental_result("COc1ccc(N2C(=O)[C@H](CCCc3ccccc3)[C@H]2c2ccc(OC(C)(C)C)cc2)cc1")
-26
>>> experimental_result("COc1ccc(N2C(=O)C(CCCc3ccccc3)C23c2ccc(OC)cc2-c2cc(OC)ccc23)cc1 (stereo unspecified)")
-22
>>> experimental_result("COc1ccc([C@@H]2[C@@H](CCCc3ccccc3)C(=O)N2C2CC2)cc1")
-20
>>> experimental_result("COc1ccc(N[C@H](c2ccc(OC)cc2)[C@@H](CCCc2ccccc2)C(=O)O)cc1")
-8
>>> experimental_result("COc1ccc(N2C(=O)[C@H](CCCc3ccccc3)[C@H]2c2ccc(OCc3ccccc3)cc2)cc1")
-15
>>> experimental_result("COc1ccc([C@@H]2[C@@H](CCc3ccccc3)C(=O)N2c2ccc(OC)cc2)cc1")
0
>>> experimental_result("COc1ccc([C@@H]2[C@H](CCCC3CCCCC3)C(=O)N2c2ccc(OC)cc2)cc1")
12
>>> experimental_result("COc1ccc(N2C(=O)[C@H](CCCc3ccccc3)[C@H]2c2ccc(N(C)C)cc2)cc1")
-29
>>> experimental_result("COc1ccc([C@@H]2[C@@H](CCCc3ccccc3)C(=O)N2c2ccc(OC)cc2)cc1 [SCH-48461]")
-29
>>> experimental_result("COc1ccc(N2C(=O)[C@@H](CCCc3ccccc3)[C@H]2c2ccc(O)cc2)cc1")
-31
>>> experimental_result("COc1ccc([C@H]2N(c3ccc(OC)cc3)C(=O)[C@@]2(C)CCCc2ccccc2)cc1")
0
>>> experimental_result("COc1ccc(N2C(=O)[C@H](CCCc3ccccc3)[C@H]2c2ccc(C)cc2)cc1")
-20
>>> experimental_result("COc1ccc(N2C(=O)[C@@H](CCCc3ccccc3)[C@H]2c2ccccc2)cc1")
0
>>> experimental_result("COc1ccc([C@@H]2[C@@H](CCCc3ccccc3)C(=O)N2c2ccc(C)c(C)c2)cc1")
-21
>>> experimental_result("COc1ccc(N2C(=O)[C@H](CCCc3ccccc3)[C@H]2c2ccc(CO)cc2)cc1")
-21
>>> experimental_result("COc1ccc([C@@H]2[C@@H](CCCC3CCCCC3)C(=O)N2c2ccc(OC)cc2)cc1")
-23
>>> experimental_result("COc1ccc(N2C(=O)[C@H](CCCc3ccccc3)[C@H]2c2ccc(OC)c(OC)c2)cc1")
-11
>>> experimental_result("CCOc1ccc([C@@H]2[C@H](CCCc3ccccc3)C(=O)N2c2ccc(OC)cc2)cc1")
-48
>>> experimental_result("COc1ccc([C@H]2N(c3ccccc3)C(=O)[C@]2(F)CCCc2ccccc2)cc1")
-10
>>> experimental_result("COc1ccc(N2C(=O)[C@H](CCCc3ccccc3)[C@H]2c2ccc(NC(C)=O)cc2)cc1")
-4
>>> experimental_result("COc1ccc([C@@H]2[C@@H](CCCCc3ccccc3)C(=O)N2c2ccc(OC)cc2)cc1")
-8
>>> experimental_result("CC[C@H]1C(=O)N(c2ccc(OC)cc2)[C@@H]1c1ccc(OC)cc1")
0
